Data origin: patent US12673961B2

STUDY SYSTEM: human PAH with the R408W mutation (Homo sapiens, UniProt P00439, R408W)
Construct: expressed in transfected cells
Sequence (P00439 whole entry R408W): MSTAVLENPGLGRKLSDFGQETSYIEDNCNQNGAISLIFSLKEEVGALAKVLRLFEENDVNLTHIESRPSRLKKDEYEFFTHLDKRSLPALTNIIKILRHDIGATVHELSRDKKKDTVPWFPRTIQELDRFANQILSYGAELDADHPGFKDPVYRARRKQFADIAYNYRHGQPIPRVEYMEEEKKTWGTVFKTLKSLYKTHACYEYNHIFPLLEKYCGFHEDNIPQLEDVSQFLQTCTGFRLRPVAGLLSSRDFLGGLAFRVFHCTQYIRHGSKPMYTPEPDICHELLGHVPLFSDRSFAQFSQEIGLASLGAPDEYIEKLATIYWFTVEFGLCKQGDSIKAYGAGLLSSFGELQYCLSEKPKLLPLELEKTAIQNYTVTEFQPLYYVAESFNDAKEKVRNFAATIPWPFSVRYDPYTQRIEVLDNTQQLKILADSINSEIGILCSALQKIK
TEST PROTOCOL: Cell Based Phenylalanine Flux Assay;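 note: Ten-point dose curve from 2-fold serial dilutions, run in duplicate at 0.5% DMSO final, tracer step used 20 µM sepiapterin and 800 µM labeled phenylalanine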
STATED CONDITIONS: A375 cells expressing human R408W PAH; 24 hrs with compound, then sepiapterin and 13C9,15N-Phenylalanine for 4 hours; 13C-Tyrosine by LC-MS; average where tested multiple times; read-out: AC50
MEASURED ATTRIBUTE: AC50

Please review the entries below; each comes with its answer.
CC(C)c1cccn2nc([C@H]3c4nc[nH]c4CCN3c3nnc(C4(C)CC4)o3)cc12
> 5000 nM
FC(F)Oc1cccn2nc([C@@H]3c4nc[nH]c4CCN3c3nnc(C(F)(F)F)o3)cc12
< 500 nM
Cc1ncccc1-c1nnc(N2CCc3[nH]cnc3[C@@H]2c2cc3c(F)cccn3n2)o1
> 5000 nM
O=C(c1nnc(-c2ccccn2)s1)N1CCc2[nH]cnc2[C@@H]1c1cc2c(F)cccn2n1
> 5000 nM

Below are some molecules; for each one, tell me its AC50.
1. O=C(c1ocnc1C1CC1)N1CCc2[nH]cnc2[C@H]1c1cc2c(C(F)F)cccn2n1
2. COCc1ccc2c(C(=O)N3CCc4[nH]cnc4[C@H]3c3cc4c(F)cccn4n3)cnn2c1
3. Fc1cccc(F)c1-c1nnc(N2CCc3[nH]cnc3[C@@H]2c2cc3cccc(Cl)n3n2)o1
4. O=C(c1nc2ccccc2o1)N1CCc2[nH]cnc2[C@H]1c1cc2c(F)cccn2n1

## Output
["< 500 nM", "500 to 1000 nM", "> 5000 nM", "< 500 nM"]
